Target: T1, REF6 ZnF1-4 WT (Arabidopsis thaliana, UniProt Q9STM3 1223-1360)
T1 sequence: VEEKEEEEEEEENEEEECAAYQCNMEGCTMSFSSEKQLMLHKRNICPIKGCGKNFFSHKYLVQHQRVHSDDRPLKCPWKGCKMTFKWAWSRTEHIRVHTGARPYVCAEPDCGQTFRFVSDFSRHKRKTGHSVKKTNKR
Assay: EMSA; MST: 20 mM HEPES pH 7.3, 150 mM NaCl, 0.2 mM TCEP, 0.5% CA-630, 25 C; EMSA: 30 uM protein, 10 uM dsDNA, 20 mM Tris pH 8.0, 100 mM NaCl, 2.5 mM MgCl2, 0.1% CA-630, 10% glycerol, 1 uM ZnSO4, 1 mM DTT, 4 C
Settings: protein: recombinant; tags: His6-MBP or GST tag, TEV-cleavable (cleaved when necessary)
PROPERTY NAME: binding result

- BINDER: "CUC2-3 (dsDNA) DNA 1: TAGCTCTGATAAAAT DNA 2: ATTTTATCAGAGCTA"
  PROPERTY NAME: "binding result"
  VALUE OBSERVED: "binds"
- BINDER: "CUC2-1 (dsDNA) DNA 1: TTGCTCTGTTAGTTC DNA 2: GAACTAACAGAGCAA"
  PROPERTY NAME: "binding result"
  VALUE OBSERVED: "binds"
- BINDER: "CUC2-2 (dsDNA) DNA 1: TCTCTCTGTCTTTTC DNA 2: GAAAAGACAGAGAGA"
  PROPERTY NAME: "binding result"
  VALUE OBSERVED: "binds"
- BINDER: "CUC1-2 (dsDNA) DNA 1: AGACTCTGTTTCAGA DNA 2: TCTGAAACAGAGTCT"
  PROPERTY NAME: "binding result"
  VALUE OBSERVED: "binds"

Q) Which binding result is listed for CUC1-6 (dsDNA) DNA 1: TTGCTCTGTTCGTTC DNA 2: GAACGAACAGAGCAA ?
A) binds

All figures here come from paper PMC7105484.
